- Test system: MIA PaCa-2 cells
- ASSAY_COMMENT: MIA PaCa-2 CTG Assay (CellTiter-Glo cell viability)
- Type: cell-based, human
- TEST_CONDITIONS: Homo sapiens; Mia PaCa-2, 72 h; second value of the cell; read-out: G12D/C/V Cell Proliferation CTG (72 h) Mia PaCa-2
pIC50: −log10 of the molar value.
MEASUREMENT_LABEL: pIC50

As a guide, the following entries are already answered.
C[C@@]12CCCCN(C1)c1nc(OC[C@@]34CCCN3C[C@H](F)C4)nc3c(F)c(ncc13)-c1c(c(Cl)cc3[nH]ncc13)CCCOC(=O)N2 [Example 290] | 7.49
C[C@@]12CCCN(C1)c1nc(OC[C@@]34CCCN3C[C@H](F)C4)nc3c(F)c(ncc13)-c1cc(O)cc3ccc(F)c(c13)CCCCC(=O)N2 [Example 47] | 6.70
Fc1c2ncc3c(nc(OC[C@@]45CCCN4C[C@H](F)C5)nc13)N1CCO[C@]3(C1)C[C@@H](C3)OCCCCc1c(Cl)cc3[nH]ncc3c1-2 (single isomer, unassigned) [Example 261] | 7.55

A = Cc1cc2[nH]ncc2c2c1CCCOC(=O)O[C@]1(C)COCCN(C1)c1nc(OC[C@@]34CCCN3C[C@H](F)C4)nc3c(F)c-2ncc13 [Example 190]
B = Cc1cc2[nH]ncc2c2c1C/C=C\COC[C@@H]1CCCN(C1)c1nc(OC[C@@]34CCCN3C[C@H](F)C4)nc3c(F)c-2ncc13 [Example 131]
C = Fc1c2ncc3c(nc(OC[C@@]45CCCN4C[C@H](F)C5)nc13)N1CCC[C@@H](Cc3ncc(o3)CCc3c(Cl)cc4[nH]ncc4c3-2)C1 [Example 231]
Problem: Order the records by pIC50, with each subsequent value no larger than the one before. // respond by listing labels in the order requested
Solution: A, C, B

----------
- EXPERIMENTAL_TARGET: GDP-bound KRAS protein (aa 1-169), containing both G12D and C118A amino acid substitutions (Homo sapiens (Human), UniProt P01116, C118A/G12D)
- Sequence (P01116 other isoform, or with tags, fused parts or gaps G12D/C118A): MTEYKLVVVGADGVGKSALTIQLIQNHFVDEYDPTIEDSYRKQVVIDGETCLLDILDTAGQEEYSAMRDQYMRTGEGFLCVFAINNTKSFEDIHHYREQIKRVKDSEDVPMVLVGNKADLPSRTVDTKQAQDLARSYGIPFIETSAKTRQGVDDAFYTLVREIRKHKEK
- ASSAY_COMMENT: KRAS G12D Coupled Nucleotide Exchange Assay
- Type: biochemical
- TEST_CONDITIONS: read-out: KRAS G12D Coupled Exchange IC50
pIC50: −log10 of the molar value.
MEASUREMENT_LABEL: pIC50

O=C1N[C@@H]2CN(C[C@@H]3C[C@@H]32)c2nc(OC[C@@]34CCCN3C[C@H](F)C4)nc3c(F)c(ncc23)-c2c(c(Cl)cc3[nH]ncc23)CCC[C@H]1F | 5.99
O=C1N[C@H]2C[C@@]3(CCCN(C3)c3nc(OC[C@@]45CCCN4C[C@H](F)C5)nc4c(F)c(ncc34)-c3c(c(Cl)cc4[nH]ncc34)CCO1)C2 | 8.22
O=C1CCCc2cccc3cccc(c23)-c2ncc3c(nc(OC[C@@]45CCCN4C[C@H](F)C5)nc3c2F)N2CCC[C@H](C2)O1 [Example 29, bis(2,2,2-trifluoroacetate)] | 6.29
Cc1cc2[nH]ncc2c2c1CCCCCO[C@@H]1CCCN(C1)c1nc(OC[C@@]34CCCN3C[C@H](F)C4)nc3c(F)c-2ncc13 | 7.17
O=C1COCCc2c(Cl)cc3[nH]ncc3c2-c2ncc3c(nc(OC[C@@]45CCCN4C[C@H](F)C5)nc3c2F)N2CCC[C@H](C2)O1 | 7.96

a = Fc1c2ncc3c(nc(OC[C@@]45CCCN4C[C@H](F)C5)nc13)N1CCOC[C@]3(C1)C[C@H](C3)OCCCCc1c(Cl)cc3[nH]ncc3c1-2
b = O=C1OCCCc2c(Cl)cc3[nH]ncc3c2-c2ncc3c(nc(OC[C@@]45CCCN4C[C@H](F)C5)nc3c2F)N2CCOC[C@H](C2)O1
c = O=C1OCCCc2c(Cl)cc(O)cc2-c2ncc3c(nc(OC[C@@]45CCCN4C[C@H](F)C5)nc3c2F)N2CCOC[C@H](C2)O1
Problem: Please order the records by their reported pIC50, lowest number first. // respond by listing labels in the order requested
Solution: a, b, c
(a: 7.62, b: 8.70, c: 9.00)

P = Cc1cc2[nH]ncc2c2c1C[C@@H](C)COC(=O)O[C@@H]1CCCN(C1)c1nc(OC[C@@]34CCCN3C[C@H](F)C4)nc3c(F)c-2ncc13 (single isomer, unassigned)
Q = O=C1CCCCc2c(Cl)cc3[nH]ncc3c2-c2ncc3c(nc(OC[C@@]45CCCN4C[C@H](F)C5)nc3c2F)N2C[C@H]3CN1[C@H]3C2
R = Fc1c2ncc3c(nc(OC[C@@]45CCCN4C[C@H](F)C5)nc13)N1CCO[C@]3(C1)C[C@H](C3)OCCCCc1c(Cl)cc3[nH]ncc3c1-2 (single isomer, unassigned)
Problem: Order the records by pIC50, with each subsequent value no larger than the one before. // respond by listing labels in the order requested
Solution: P, Q, R
